targetDesc: caspase-10 (Homo sapiens, UniProt Q92851)
Sequence (Q92851 220-415 limits assumed): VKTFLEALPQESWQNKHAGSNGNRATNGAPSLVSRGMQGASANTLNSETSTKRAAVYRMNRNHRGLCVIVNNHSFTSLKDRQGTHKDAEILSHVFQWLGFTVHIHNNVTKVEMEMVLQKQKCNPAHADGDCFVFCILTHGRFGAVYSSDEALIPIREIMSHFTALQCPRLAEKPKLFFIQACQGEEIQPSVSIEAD
Sequence (Q92851 416-521 limits assumed): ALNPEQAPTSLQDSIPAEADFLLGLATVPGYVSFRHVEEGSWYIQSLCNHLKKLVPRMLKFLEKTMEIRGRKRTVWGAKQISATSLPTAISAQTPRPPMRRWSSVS
testDetails: Biochemical inhibition assay, kinact/Ki with AMAC substrate
conditionsUsed: read-out: kinact/Ki C10
Square brackets hold non-standard residues; d marks the D form. Peptide text beside a SMILES is read from it. * marks the point of attachment. AspCH2OCO(5-Me-thien-2-yl) = Cc1ccc(C(=O)OCC(=O)[C@H](CC(=O)O)N*)s1; Phe(F5) = N[C@@H](Cc1c(F)c(F)c(F)c(F)c1F)C(=O)O; X2 = O=C(CCOCCOCCOCCOCCn1cc(CCCF)nn1)*; 3Pal = N[C@@H](Cc1cccnc1)C(=O)O; X1 = O=C(Cn1cc(CCCF)nn1)*; Ahx = NCCCCCC(=O)O
Documented kinact/KI across a set of molecules
observable: kinact/KI (M⁻¹ s⁻¹)

{"molecule": "Cc1ccc(C(=O)OCC(=O)[C@H](CC(=O)O)NC(=O)[C@H](Cc2ccccc2)NC(=O)[C@H](Cc2c(F)c(F)c(F)c(F)c2F)NC(=O)[C@H](CC(=O)O)NC(=O)[C@H](Cc2cccnc2)NC(=O)CCCCCNC(=O)Cn2cc(CCCF)nn2)s1 [Inhibitor 6] ({X1-Ahx}-[3Pal]D[Phe(F5)]F-{AspCH2OCO(5-Me-thien-2-yl)})", "observable": "kinact/KI", "recordedResult": 900}
{"molecule": "Cc1ccc(C(=O)OCC(=O)[C@H](CC(=O)O)NC(=O)[C@H](Cc2ccccc2)NC(=O)[C@H](Cc2c(F)c(F)c(F)c(F)c2F)NC(=O)[C@H](CC(=O)O)NC(=O)[C@H](Cc2cccnc2)NC(=O)CNC(=O)CNC(=O)CNC(=O)Cn2cc(CCCF)nn2)s1 [Inhibitor 7] (X1-GGG[3Pal]D[Phe(F5)]F-{AspCH2OCO(5-Me-thien-2-yl)})", "observable": "kinact/KI", "recordedResult": 1000}
{"molecule": "Cc1ccc(C(=O)OCC(=O)[C@H](CC(=O)O)NC(=O)[C@H](Cc2ccccc2)NC(=O)[C@H](Cc2c(F)c(F)c(F)c(F)c2F)NC(=O)[C@H](CC(=O)O)NC(=O)[C@H](Cc2cccnc2)NC(=O)CNC(=O)[C@H](CCC(=O)O)NC(=O)CNC(=O)Cn2cc(CCCF)nn2)s1 [Inhibitor 4] (X1-GEG[3Pal]D[Phe(F5)]F-{AspCH2OCO(5-Me-thien-2-yl)})", "observable": "kinact/KI", "recordedResult": 700}
{"molecule": "Cc1ccc(C(=O)OCC(=O)[C@H](CC(=O)O)NC(=O)[C@H](Cc2ccccc2)NC(=O)[C@H](Cc2c(F)c(F)c(F)c(F)c2F)NC(=O)[C@H](CC(=O)O)NC(=O)[C@H](Cc2cccnc2)NC(=O)CCOCCOCCOCCOCCn2cc(CCCF)nn2)s1 [Inhibitor 5] (X2-[3Pal]D[Phe(F5)]F-{AspCH2OCO(5-Me-thien-2-yl)})", "observable": "kinact/KI", "recordedResult": 600}
{"molecule": "Cc1ccc(C(=O)OCC(=O)[C@H](CC(=O)O)NC(=O)[C@H](Cc2ccccc2)NC(=O)[C@H](Cc2c(F)c(F)c(F)c(F)c2F)NC(=O)[C@H](CC(=O)O)NC(=O)[C@H](Cc2cccnc2)NC(=O)Cn2cc(CCCF)nn2)s1 [Inhibitor 8] (X1-[3Pal]D[Phe(F5)]F-{AspCH2OCO(5-Me-thien-2-yl)})", "observable": "kinact/KI", "recordedResult": 700}

====

Documented kinact/KI across a set of compounds
targetDesc: UniProt:P55210
Sequence (P55210 24-198 limits assumed): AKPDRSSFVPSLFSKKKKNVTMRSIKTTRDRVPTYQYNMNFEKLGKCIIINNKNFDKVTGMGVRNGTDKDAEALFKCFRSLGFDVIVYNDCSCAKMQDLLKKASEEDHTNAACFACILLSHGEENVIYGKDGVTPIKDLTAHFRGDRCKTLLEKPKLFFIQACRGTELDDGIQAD
Sequence (P55210 207-303 limits assumed): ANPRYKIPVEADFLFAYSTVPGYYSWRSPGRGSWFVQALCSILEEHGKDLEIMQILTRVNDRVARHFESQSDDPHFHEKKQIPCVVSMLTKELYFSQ
testDetails: Biochemical inhibition assay, kinact/Ki with AMAC substrate
conditionsUsed: read-out: kinact/Ki C7
Square brackets hold non-standard residues; d marks the D form. Peptide text beside a SMILES is read from it. * marks the point of attachment. AspCH2OCO(5-Me-thien-2-yl) = Cc1ccc(C(=O)OCC(=O)[C@H](CC(=O)O)N*)s1; Phe(F5) = N[C@@H](Cc1c(F)c(F)c(F)c(F)c1F)C(=O)O; X5 = Cc1cccc(C)c1C(=O)OCC(=O)[C@@H](CC(=O)O)N*; X4 = Cc1ccc(C(=O)OCC(=O)[C@@H](CC(=O)O)N*)s1; X2 = O=C(CCOCCOCCOCCOCCn1cc(CCCF)nn1)*; d(β3hL) = CC(C)C[C@@H](N)CC(=O)O; 3Pal = N[C@@H](Cc1cccnc1)C(=O)O; d3Pal = N[C@H](Cc1cccnc1)C(=O)O; X3 = O=C(CCCc1cn(CCF)nn1)*; X1 = O=C(Cn1cc(CCCF)nn1)*; Ahx = NCCCCCC(=O)O

{"compound": "Cc1ccc(C(=O)OCC(=O)[C@H](CC(=O)O)NC(=O)[C@H](Cc2ccccc2)NC(=O)[C@H](Cc2c(F)c(F)c(F)c(F)c2F)NC(=O)[C@H](CC(=O)O)NC(=O)[C@H](Cc2cccnc2)NC(=O)CNC(=O)CNC(=O)CNC(=O)Cn2cc(CCCF)nn2)s1 [Inhibitor 7] (X1-GGG[3Pal]D[Phe(F5)]F-{AspCH2OCO(5-Me-thien-2-yl)})", "kinact/KI [M⁻¹ s⁻¹]": 117000}
{"compound": "Cc1ccc(C(=O)OCC(=O)[C@@H](CC(=O)O)NC(=O)[C@@H](Cc2ccccc2)NC(=O)C[C@@H](CC(C)C)NC(=O)[C@@H](CC(=O)O)NC(=O)[C@@H](Cc2cccnc2)NC(=O)CCCCCNC(=O)CCCCCNC(=O)CCCc2cn(CCF)nn2)s1 [Inhibitor 1] ({X3-Ahx-Ahx}-[d3Pal][dD][d(β3hL)][dF]-X4)", "kinact/KI [M⁻¹ s⁻¹]": 200}
{"compound": "Cc1ccc(C(=O)OCC(=O)[C@H](CC(=O)O)NC(=O)[C@H](Cc2ccccc2)NC(=O)[C@H](Cc2c(F)c(F)c(F)c(F)c2F)NC(=O)[C@H](CC(=O)O)NC(=O)[C@H](Cc2cccnc2)NC(=O)CCOCCOCCOCCOCCn2cc(CCCF)nn2)s1 [Inhibitor 5] (X2-[3Pal]D[Phe(F5)]F-{AspCH2OCO(5-Me-thien-2-yl)})", "kinact/KI [M⁻¹ s⁻¹]": 106000}
{"compound": "Cc1ccc(C(=O)OCC(=O)[C@H](CC(=O)O)NC(=O)[C@H](Cc2ccccc2)NC(=O)[C@H](Cc2c(F)c(F)c(F)c(F)c2F)NC(=O)[C@H](CC(=O)O)NC(=O)[C@H](Cc2cccnc2)NC(=O)Cn2cc(CCCF)nn2)s1 [Inhibitor 8] (X1-[3Pal]D[Phe(F5)]F-{AspCH2OCO(5-Me-thien-2-yl)})", "kinact/KI [M⁻¹ s⁻¹]": 61000}
{"compound": "Cc1cccc(C)c1C(=O)OCC(=O)[C@@H](CC(=O)O)NC(=O)[C@@H](Cc1ccccc1)NC(=O)C[C@@H](CC(C)C)NC(=O)[C@@H](CC(=O)O)NC(=O)[C@@H](Cc1cccnc1)NC(=O)CCCCCNC(=O)CCCCCNC(=O)CCCc1cn(CCF)nn1 [Inhibitor 3] ({X3-Ahx-Ahx}-[d3Pal][dD][d(β3hL)][dF]-X5)", "kinact/KI [M⁻¹ s⁻¹]": 1000}
{"compound": "Cc1ccc(C(=O)OCC(=O)[C@H](CC(=O)O)NC(=O)[C@H](Cc2ccccc2)NC(=O)[C@H](Cc2c(F)c(F)c(F)c(F)c2F)NC(=O)[C@H](CC(=O)O)NC(=O)[C@H](Cc2cccnc2)NC(=O)CNC(=O)[C@H](CCC(=O)O)NC(=O)CNC(=O)Cn2cc(CCCF)nn2)s1 [Inhibitor 4] (X1-GEG[3Pal]D[Phe(F5)]F-{AspCH2OCO(5-Me-thien-2-yl)})", "kinact/KI [M⁻¹ s⁻¹]": 71400}
{"compound": "Cc1ccc(C(=O)OCC(=O)[C@H](CC(=O)O)NC(=O)[C@H](Cc2ccccc2)NC(=O)[C@H](Cc2c(F)c(F)c(F)c(F)c2F)NC(=O)[C@H](CC(=O)O)NC(=O)[C@H](Cc2cccnc2)NC(=O)CCCCCNC(=O)Cn2cc(CCCF)nn2)s1 [Inhibitor 6] ({X1-Ahx}-[3Pal]D[Phe(F5)]F-{AspCH2OCO(5-Me-thien-2-yl)})", "kinact/KI [M⁻¹ s⁻¹]": 108000}

====

targetDesc: caspase-3 (Homo sapiens, UniProt P42574)
Sequence (P42574 29-175 limits assumed): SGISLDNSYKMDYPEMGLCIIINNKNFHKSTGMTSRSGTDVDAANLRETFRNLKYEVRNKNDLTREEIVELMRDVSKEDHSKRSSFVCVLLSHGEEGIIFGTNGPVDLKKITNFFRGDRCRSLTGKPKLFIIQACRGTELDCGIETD
Sequence (P42574 176-277 limits assumed): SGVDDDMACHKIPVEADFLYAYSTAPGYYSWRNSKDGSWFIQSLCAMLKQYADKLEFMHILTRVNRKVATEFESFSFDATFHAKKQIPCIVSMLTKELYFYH
testDetails: Biochemical inhibition assay, kinact/Ki with AMAC substrate
conditionsUsed: read-out: kinact/Ki C3
Square brackets hold non-standard residues; d marks the D form. Peptide text beside a SMILES is read from it. * marks the point of attachment. AspCH2OCO(5-Me-thien-2-yl) = Cc1ccc(C(=O)OCC(=O)[C@H](CC(=O)O)N*)s1; Phe(F5) = N[C@@H](Cc1c(F)c(F)c(F)c(F)c1F)C(=O)O; X2 = O=C(CCOCCOCCOCCOCCn1cc(CCCF)nn1)*; 3Pal = N[C@@H](Cc1cccnc1)C(=O)O; X1 = O=C(Cn1cc(CCCF)nn1)*
Documented kinact/KI across a set of molecules

{"molecule": "Cc1ccc(C(=O)OCC(=O)[C@H](CC(=O)O)NC(=O)[C@H](Cc2ccccc2)NC(=O)[C@H](Cc2c(F)c(F)c(F)c(F)c2F)NC(=O)[C@H](CC(=O)O)NC(=O)[C@H](Cc2cccnc2)NC(=O)CNC(=O)[C@H](CCC(=O)O)NC(=O)CNC(=O)Cn2cc(CCCF)nn2)s1 [Inhibitor 4] (X1-GEG[3Pal]D[Phe(F5)]F-{AspCH2OCO(5-Me-thien-2-yl)})", "targetDesc": "caspase-3 (Homo sapiens, UniProt P42574)", "endpointUnit": "M⁻¹ s⁻¹", "kinact/KI": 863000}
{"molecule": "Cc1ccc(C(=O)OCC(=O)[C@H](CC(=O)O)NC(=O)[C@H](Cc2ccccc2)NC(=O)[C@H](Cc2c(F)c(F)c(F)c(F)c2F)NC(=O)[C@H](CC(=O)O)NC(=O)[C@H](Cc2cccnc2)NC(=O)CCOCCOCCOCCOCCn2cc(CCCF)nn2)s1 [Inhibitor 5] (X2-[3Pal]D[Phe(F5)]F-{AspCH2OCO(5-Me-thien-2-yl)})", "targetDesc": "caspase-3 (Homo sapiens, UniProt P42574)", "endpointUnit": "M⁻¹ s⁻¹", "kinact/KI": "1.25e+06"}

Data provenance: paper PMC11310375
